target: SARS-CoV-2 spike receptor-binding domain (RBD) (SARS-CoV-2, UniProt P0DTC2 319-541); assay: indirect ELISA, RBD coated on plate, 4PL fit
// log10(ELISA affinity) lookup, one value per entry
Annotation: log10 of ELISA affinity, nM basis.

Example entries and their recorded answers appear below.
binder: Nb105 (VHH) VHH: HVQLVESGGGLVQAGGSLRLSCAVSGRTFSTYGMAWFRQAPGKERDFVATITRSGETTLYADSVKGRFTISRDNAKNTVYLQMNSLKIEDTAVYYCAVRRDSSWGYSRDLFEYDYWGQGTQVTVSS
metricName: log10(ELISA affinity)
recordedMeasurement: -0.59

binder: Nb28 (VHH) VHH: HVQLVESGGGLVQAGGSLRLSCAASGRTFSTSTMDMGWFRQAPGKEREFVGADSWNDGRTYYADSVKGRFTISRDNAKNTLYLQMNNLKPEDTAVYYCAAETYSLYEKSDSWGYWGQGTQVTVSS
metricName: log10(ELISA affinity)
recordedMeasurement: -0.04

binder: Nb9 (VHH) VHH: HVQLVESGGGLVQTGGSLRLSCAFSGYTFSTFPTAWFRQAPGKEREFVAGIRWNGGSRDYTEYADFVKGRFTISRDNAKNMIYLQMISLKPEDTALYYCAASHGVVDGTSVNGYRYWGQGTQVTVSS
metricName: log10(ELISA affinity)
recordedMeasurement: -0.05

binder: Nb2 (VHH) VHH: QVQLVESGGGLVQAGGSLRLSCAASGRTFSIYNMGWFRQAPGKEREFVIHMNWSNGNTATAASVKDRFTISRDNAKNTVYLQMSSLKPEDTAVYYCHATTNDYDYWGQGTQVTVSS
metricName: log10(ELISA affinity)
recordedMeasurement: 0.68

binder: Nb26 (VHH) VHH: HVQLVESGGGLVQAGGSLRLTCAASGRTFSISTMDMGWFRQAPGKEREFVAADAWNDGRTYYADSVKGRFTISRDNAKNTLYLQMNSLKPEDTAVYYCTADTYSNYKKDDSWGYWGQGTQVTVSS
metricName: log10(ELISA affinity)
recordedMeasurement: -0.04

binder: Nb4 (VHH) VHH: QVQLVESGGGLVQAGGSLRLSCVASGSGFEPNAMGWYRQAPGKQRELVAGITSGGNANYADSVKGRFTISRDNVKNTVYLQMNSLKPEDTAVYYCNAVGPRFNPRGSPTNYWGQGTQVTVSS
metricName: log10(ELISA affinity)
recordedMeasurement: -0.17

binder: Nb24 (VHH) VHH: QVQLVESGGGLVQAGGSLRLTCAASGGTFSTSTMDMGWFRQAPGKEREFVALDSWNGGRTYYADSVKGRFTISRDNAKNTLYLQMNSLKPEDTAVYYCAADTYSNYEKDDSWGYWGQGTQVTVSS
metricName: log10(ELISA affinity)
recordedMeasurement: -0.11

The reported log10(ELISA affinity) of the binder Nb3 (VHH) VHH: HVQLVESGGGLVQAGGSLRLSCVASGSGFEPNAMGWYRQAPGKQRELVAGITSGGNTNYADSVKGRFTISRDNVKNTVYLQMNSLKPEDTAVYYCNAVAPRINPRGSPTNYWGQGTQVTVSS was -0.32
